FYI, the data here is from PubChem BioAssay (NCI).

tested on: NCI-H226 lung; test: NCI-60 one-dose screen, 48 h; conditions: 10 µM
The panel holds about 83,000 compounds, 20% with a hit somewhere; the sample as a whole holds those more often. Calls of active or inactive are those of the source. Rule for the calls: active = growth percent below 10; inactive = the rest.
Log the outcome using a class from yes for active, no for inactive

Please review the entries below; each comes with its answer.
{"columns": ["Compound", "System", "Label"],
 "data": [
  ["O=C1/C(=C\\c2ccc(F)cc2)CN(C(=O)c2ccccc2)C/C1=C\\c1ccc(F)cc1", "NCI-H226 lung", "no"],
  ["Nc1ccccc1NC(=O)CCCCC(=O)Nc1ccc2c(c1)/C(=C/c1ccc[nH]1)C(=O)N2", "NCI-H226 lung", "no"],
  ["CC1(O)CCC2CC3OC3(C)CCC3OC3(C)CCC1C2(C)C (stereo unspecified)", "NCI-H226 lung", "no"],
  ["COC(=O)[C@@H]1[C@H](O)[C@H](C)[C@H](O)[C@@](C)(O)/C=C\\C=C(C)C(=O)Nc2c(C)c(OC(C)=O)c3c(c2O)C(=O)C(C)=C2OCOC(=C23)C(C)=C[C@@](C)(O)[C@H](O)[C@@H](C)[C@H]1OC(C)=O", "NCI-H226 lung", "no"],
  ["O=C(Nc1nc2ccc(F)cc2s1)c1cc(-c2ccc(F)cc2)n2nc(-c3ccccc3)cc2n1", "NCI-H226 lung", "no"]
]}

For the next question, use this compound.
# outcome recorded in this test, key = C=C(NC(=O)C(=C)NC(=O)c1csc(C2=NC3c4csc(n4)C4NC(=O)c5csc(n5)C(C(C)(O)C(C)O)NC(=O)C5CSC(=N5)/C(=C/C)NC(=O)C(C(C)O)NC(=O)c5csc(n5)C3(CC2)NC(=O)C(C)NC(=O)C(=C)NC(=O)C(=C)NC(=O)C(C(C)C)NC2C=Cc3c(C(C)O)cc(nc3C2O)C(=O)OC4C)n1)C(N)=O (stereo unspecified)
yes
